# SYSTEM UNDER TEST: MCL-1 (Homo sapiens)
# Sequence (Q07820 whole entry): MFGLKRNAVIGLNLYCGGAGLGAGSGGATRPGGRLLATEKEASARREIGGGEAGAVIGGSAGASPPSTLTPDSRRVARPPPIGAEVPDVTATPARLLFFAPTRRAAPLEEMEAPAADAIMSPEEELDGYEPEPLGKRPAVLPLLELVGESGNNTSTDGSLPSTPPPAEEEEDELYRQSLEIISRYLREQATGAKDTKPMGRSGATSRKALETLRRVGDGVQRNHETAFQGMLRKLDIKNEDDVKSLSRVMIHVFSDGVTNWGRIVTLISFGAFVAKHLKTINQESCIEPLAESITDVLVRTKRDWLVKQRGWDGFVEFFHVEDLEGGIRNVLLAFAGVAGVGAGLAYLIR
# MEASUREMENT NOTES: Protein-protein interaction assay MCL-1/Noxa BH3 peptide (MCL-1 assay), TR-FRET
# Type: binding
# ASSAY SETUP: MBP-MCL-1 / Noxa BH3-derived peptide, median
PROPERTY LABEL: IC50 (nM)
Reply with just the number (in nM).

COMPOUND: CCc1c2c(nn1CCN1CCOCC1)COCCCCn1c(C(=O)O)c(CCCOc3cccc4ccccc34)c3ccc(C)c-2c31 (single isomer, unassigned; enantiomer 1) [Example 205]
SYSTEM UNDER TEST: MCL-1 (Homo sapiens)
MEASUREMENT UNIT: nM
IC50: 1.65

query: Recorded IC50 of CN1CCCn2c(C(=O)O)c(CCCOc3cccc4ccccc34)c3cccc(c32)-c2c(nn(C)c2COc2ccc(N3CCN(S(=O)(=O)N(C)C)CC3)cc2)C1 (single isomer, unassigned; enantiomer 1) [Example 1-112] , please.
result: 12

query: Could you share which IC50 value was measured for O=C(O)c1c(CCCOc2cccc3ccccc23)c2cccc3c2n1CCCCOCc1nn2c(c1-3)CCCC2 (racemic) [Example 253] ?
result: 8.67

* * *

# System: OPM2
# MEASUREMENT NOTES: Anti-proliferative effect (CellTiter-Glo, 72 h), OPM2
# Type: cell-based
# ASSAY SETUP: Homo sapiens, OPM-2, 72 h, OPM2 cells, median, read-out: IC50 antiproliferation assay OPM2 [M] (median)
Below, each entry is listed with its recorded IC50.

Record excerpt, results attached:
MOLECULE: CC(C)OCc1nn(C)c2c1-c1cccc3c(CCCOc4cccc5ccccc45)c(C(=O)O)n(c13)CCCCN(C)C2 (single isomer, unassigned) [Example 1-74]
SYSTEM UNDER TEST: OPM2
PROPERTY LABEL: IC50
ASSAY VALUE: 1.6e-05 M

MOLECULE: Cc1nn(C)c2c1-c1cccc3c(CCCOc4ccccc4)c(C(=O)O)n(c13)CCCCOC2 (racemic) [Example 016]
SYSTEM UNDER TEST: OPM2
PROPERTY LABEL: IC50
ASSAY VALUE: > 3.3e-05 M

MOLECULE: Cn1nc(COc2ccc(S(C)(=O)=O)cc2)c2c1COCCCCn1c(C(=O)O)c(CCCOc3cccc4ccccc34)c3cccc-2c31 (single isomer, unassigned) [Example 1-55]
SYSTEM UNDER TEST: OPM2
PROPERTY LABEL: IC50
ASSAY VALUE: > 3.3e-05 M

MOLECULE: CC(C)OCc1nn(C)c2c1-c1cccc3c(CCCOc4cccc5ccccc45)c(C(=O)O)n(c13)CCCN(C)C2 (single isomer, unassigned) [Example 1-71]
SYSTEM UNDER TEST: OPM2
PROPERTY LABEL: IC50
ASSAY VALUE: 2.57e-05 M

MOLECULE: CCc1c2c(nn1C)CN(C)CCCn1c(C(=O)O)c(CCCOc3cccc4ccccc34)c3ccc(C)c-2c31 (racemic) [Example 144]
SYSTEM UNDER TEST: OPM2
PROPERTY LABEL: IC50
ASSAY VALUE: 5.52e-06 M

Query molecule follows.
query: Can you look up the measured IC50 of CN1CCCn2c(C(=O)O)c(CCCOc3cccc4ccccc34)c3cccc(c32)-c2c(CNCC(F)(F)F)nn(C)c2C1 (racemic) [Example 129] for me?
result: > 3.3e-05 M
